Data provenance: patent US8685970B2

System tested: SIRT1 (Homo sapiens, UniProt Q96EB6)
Measurement description: Mass spectrometry based SIRT1 deacetylation assay (activation)
Format: biochemical
Measurement setup: 10 nM SIRT1, 0.5 μM peptide substrate, 120 μM βNAD+, 25 min at 25° C.
Assay metric: EC1.5 (concentration of test compound that results in 150% activation of SIRT1)

Example cases with answers are listed next.
Molecule	Meas value
CS(=O)(=O)c1ccc(-c2ccc3cccc(NC(=O)c4cscn4)c3n2)cc1 [Compound 106]	B (EC1.5 1-25 uM)
Cc1cc(C)nc(NC(=O)c2cccc3ccc(-c4cccc(C(F)(F)F)c4)nc23)c1 [Compound 53]	A (EC1.5<1.0 uM)
Cc1noc(NC(=O)c2cccc3ccc(-c4cccc(C(F)(F)F)c4)nc23)c1C [Compound 82]	B (EC1.5 1-25 uM)
Cc1cc(NC(=O)c2cccc3ccc(-c4cccc(C(F)(F)F)c4)nc23)sn1 [Compound 59]	A (EC1.5<1.0 uM)

QUERY: // returns reported EC1.5 (concentration of test compound that results in 150% activation of SIRT1) for input O=C(Nc1cccc2ccc(-c3ccccc3)nc12)c1cnccn1 [Compound 3]
RESULT: A (EC1.5<1.0 uM)

QUERY: // returns reported EC1.5 (concentration of test compound that results in 150% activation of SIRT1) for input Cc1cc(-c2ccc3cccc(C(=O)Nc4cccnc4)c3n2)no1 [Compound 68]
RESULT: C (EC1.5>25 uM)

QUERY: // returns reported EC1.5 (concentration of test compound that results in 150% activation of SIRT1) for input CN(C)c1cccc(C(=O)Nc2cccc3ccc(-c4cccc(C(F)(F)F)c4)nc23)c1 [Compound 215]
RESULT: A (EC1.5<1.0 uM)

QUERY: // returns reported EC1.5 (concentration of test compound that results in 150% activation of SIRT1) for input O=C(Nc1ccncn1)c1cccc2cnc(-c3cccc(C(F)(F)F)c3)nc12 [Compound 271]
RESULT: B (EC1.5 1-25 uM)

QUERY: // returns reported EC1.5 (concentration of test compound that results in 150% activation of SIRT1) for input O=C(Nc1cccc2ccc(-c3cccc(N4CCCC4)c3)nc12)c1cscn1 [Compound 201]
RESULT: C (EC1.5>25 uM)

QUERY: // returns reported EC1.5 (concentration of test compound that results in 150% activation of SIRT1) for input O=C(Nc1ccncc1)c1cccc2ccc(-c3cccc(OC(F)(F)F)c3)nc12 [Compound 26]
RESULT: B (EC1.5 1-25 uM)

QUERY: // returns reported EC1.5 (concentration of test compound that results in 150% activation of SIRT1) for input O=C(Nc1nccs1)Nc1cccc2ccc(-c3cccc(OC(F)(F)F)c3)nc12 [Compound 45]
RESULT: A (EC1.5<1.0 uM)

QUERY: // returns reported EC1.5 (concentration of test compound that results in 150% activation of SIRT1) for input O=C(Nc1cccc2ccc(-c3cccc(F)c3)nc12)c1cscn1 [Compound 74]
RESULT: B (EC1.5 1-25 uM)

QUERY: // returns reported EC1.5 (concentration of test compound that results in 150% activation of SIRT1) for input O=C(Nc1nccs1)c1cccc2ccc(-c3cccnc3)nc12 [Compound 180]
RESULT: A (EC1.5<1.0 uM)

QUERY: // returns reported EC1.5 (concentration of test compound that results in 150% activation of SIRT1) for input O=C(Nc1cccc(OC2CCNC2)c1)c1cccc2ccc(-c3cccc(C(F)(F)F)c3)nc12 (stereo not drawn) [Compound 257]
RESULT: A (EC1.5<1.0 uM)

QUERY: // returns reported EC1.5 (concentration of test compound that results in 150% activation of SIRT1) for input Cc1cnc(NC(=O)c2cccc3ccc(-c4cccc(N5CCOCC5)c4)nc23)s1 [Compound 239]
RESULT: A (EC1.5<1.0 uM)

QUERY: // returns reported EC1.5 (concentration of test compound that results in 150% activation of SIRT1) for input O=C(Nc1cccnc1)c1cccc2ncc(-c3ccccc3)nc12 [Compound 117]
RESULT: B (EC1.5 1-25 uM)

QUERY: // returns reported EC1.5 (concentration of test compound that results in 150% activation of SIRT1) for input Cc1nnc(NC(=O)c2cccc3ccc(-c4cccc(C(F)(F)F)c4)nc23)s1 [Compound 275]
RESULT: A (EC1.5<1.0 uM)

QUERY: // returns reported EC1.5 (concentration of test compound that results in 150% activation of SIRT1) for input O=C(Nc1nc(CN2CCCC2)cs1)c1cccc2ccc(-c3cccc(C(F)F)c3)nc12 [Compound 261]
RESULT: A (EC1.5<1.0 uM)

---

System tested: UniProtKB Q96EB6
Sequence (Q96EB6 1-747): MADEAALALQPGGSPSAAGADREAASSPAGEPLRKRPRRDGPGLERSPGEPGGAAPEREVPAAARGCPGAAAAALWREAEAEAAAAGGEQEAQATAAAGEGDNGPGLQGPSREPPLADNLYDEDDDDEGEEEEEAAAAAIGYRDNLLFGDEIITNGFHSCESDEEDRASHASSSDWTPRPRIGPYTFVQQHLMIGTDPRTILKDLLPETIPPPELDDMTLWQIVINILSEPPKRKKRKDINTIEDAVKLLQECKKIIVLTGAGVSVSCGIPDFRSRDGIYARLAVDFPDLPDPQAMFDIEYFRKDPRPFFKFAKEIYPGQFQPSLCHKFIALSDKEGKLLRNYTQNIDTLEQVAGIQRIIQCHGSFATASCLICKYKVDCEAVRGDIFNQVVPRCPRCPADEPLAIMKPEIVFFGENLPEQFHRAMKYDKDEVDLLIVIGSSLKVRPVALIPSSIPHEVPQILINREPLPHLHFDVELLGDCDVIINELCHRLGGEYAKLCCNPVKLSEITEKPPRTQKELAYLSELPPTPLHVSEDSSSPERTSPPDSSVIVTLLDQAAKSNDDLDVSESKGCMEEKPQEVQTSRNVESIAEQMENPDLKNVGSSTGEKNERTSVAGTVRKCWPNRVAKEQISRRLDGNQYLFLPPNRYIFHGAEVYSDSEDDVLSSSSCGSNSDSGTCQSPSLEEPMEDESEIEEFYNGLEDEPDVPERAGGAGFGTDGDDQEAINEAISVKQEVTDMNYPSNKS
Measurement description: Mass spectrometry based SIRT1 deacetylation assay (activation)
Assay type: biochemical
Measurement setup: 10 nM SIRT1, 0.5 μM peptide substrate, 120 μM βNAD+, 25 min at 25° C.
Assay metric: EC1.5 (concentration of test compound that results in 150% activation of SIRT1)

Example cases with answers are listed next.
Molecule	System tested	Meas value
Cc1cccc(NC(=O)c2cccc3ccc(-c4cccnc4)nc23)n1	UniProtKB Q96EB6	B (EC1.5 1-25 uM)
O=C(Nc1cccc(CN2CCOCC2)c1)c1cccc2ccc(-c3cccc(C(F)(F)F)c3)nc12	UniProtKB Q96EB6	A (EC1.5<1.0 uM)
Cc1nc(NC(=O)c2cccc3ccc(-c4cccnc4)nc23)sc1C	UniProtKB Q96EB6	B (EC1.5 1-25 uM)
O=C(Nc1ncc(CN2CCOCC2)s1)c1cccc2ccc(-c3cccnc3)nc12	UniProtKB Q96EB6	B (EC1.5 1-25 uM)
O=C(Nc1ncnc2ccc(-c3cccc(OC(F)(F)F)c3)nc12)c1cncs1	UniProtKB Q96EB6	B (EC1.5 1-25 uM)
O=C(Nc1cccc2ccc(-c3cccnc3)nc12)c1cnccn1	UniProtKB Q96EB6	A (EC1.5<1.0 uM)

QUERY: // returns reported EC1.5 (concentration of test compound that results in 150% activation of SIRT1) for input O=C(Nc1cccc2ccc(-c3cccc(OC(F)(F)F)c3)nc12)c1ccc(F)cc1
RESULT: C (EC1.5>25 uM)

QUERY: // returns reported EC1.5 (concentration of test compound that results in 150% activation of SIRT1) for input Cc1nnc(NC(=O)c2cccc3ccc(-c4cccc(N5CCOCC5)c4)nc23)o1
RESULT: A (EC1.5<1.0 uM)

QUERY: // returns reported EC1.5 (concentration of test compound that results in 150% activation of SIRT1) for input Cc1ccnc(NC(=O)c2cccc3ccc(-c4cccc(C(F)(F)F)c4)nc23)n1
RESULT: A (EC1.5<1.0 uM)

QUERY: // returns reported EC1.5 (concentration of test compound that results in 150% activation of SIRT1) for input O=C(Nc1ccnc(Cl)c1)c1cccc2ccc(-c3cccc(C(F)(F)F)c3)nc12
RESULT: A (EC1.5<1.0 uM)

QUERY: // returns reported EC1.5 (concentration of test compound that results in 150% activation of SIRT1) for input O=C(Nc1ncnc2ccc(-c3cccc(C(F)(F)F)c3)nc12)c1ccccn1
RESULT: A (EC1.5<1.0 uM)

---

System tested: UniProt:Q96EB6
Measurement description: Mass spectrometry based SIRT1 deacetylation assay (activation)
Format: biochemical
Measurement setup: 10 nM SIRT1, 0.5 μM peptide substrate, 120 μM βNAD+, 25 min at 25° C.
Assay metric: EC1.5 (concentration of test compound that results in 150% activation of SIRT1)

Example cases with answers are listed next.
Compound	Meas value
O=C(NC1CCCC1)c1cccc2ccc(-c3cccc(OC4CCNCC4)c3)nc12 [Compound 94]	B (EC1.5 1-25 uM)
O=C(Nc1cccc2ccc(-c3cccc(C(F)(F)F)c3)nc12)c1cscn1 [Compound 5]	A (EC1.5<1.0 uM)
O=C(Nc1ccccn1)c1cccc2cnc(-c3cccnc3)nc12 [Compound 298]	C (EC1.5>25 uM)
O=C(Nc1cccnn1)c1cccc2ccc(-c3cccc(C(F)(F)F)c3)nc12 [Compound 100]	A (EC1.5<1.0 uM)
O=C(Nc1cccc(CN2CCCC2)n1)c1cccc2ccc(-c3cccnc3)nc12 [Compound 230]	B (EC1.5 1-25 uM)
O=C(Nc1ccncn1)c1cccc2ccc(-c3ccccc3C(F)(F)F)nc12 [Compound 87]	A (EC1.5<1.0 uM)

QUERY: // returns reported EC1.5 (concentration of test compound that results in 150% activation of SIRT1) for input O=C(NC1CN2CCC1CC2)c1cccc2ccc(-c3cccc(C(F)(F)F)c3)nc12 (stereo not drawn) [Compound 88]
RESULT: C (EC1.5>25 uM)

QUERY: // returns reported EC1.5 (concentration of test compound that results in 150% activation of SIRT1) for input O=C(Nc1cccc2ccc(-c3cccc(N4CCOCC4)c3)nc12)c1cscn1 [Compound 200]
RESULT: A (EC1.5<1.0 uM)

QUERY: // returns reported EC1.5 (concentration of test compound that results in 150% activation of SIRT1) for input O=C(Nc1cccnc1)c1cccc2ccc(-c3ccccc3C(F)(F)F)nc12 [Compound 86]
RESULT: B (EC1.5 1-25 uM)
